Just for reference, paper PMC2654718 is where these values come from.

biological target: MBP-VDR-LBDmt (human); assay: fluorescence polarisation
Ends that are not written are not given here.
quantity: Kd

{"columns": ["binder", "result"],
 "data": [
  ["C(Texas Red maleimide)QAANNSLLLHLLKSQTIPK [RIP140-5 peptide, Texas Red labeled]", "< 20 µM"],
  ["C(Texas Red maleimide)AASKHKQLSELLRSGSSPN [P300 peptide, Texas Red labeled]", "> 20 µM"],
  ["C(Texas Red maleimide)KVSQNPILTSLLQITGNGG [DRIP205-1 peptide, Texas Red labeled]", "> 20 µM"]
]}
